MEASURED_ON: UniProtKB P03146
Assay type: biochemical
MEASUREMENT_SETUP: read-out: Assembly Activity (IC50); BODIPY-FL labelled core protein, assembly started with NaCl, read after 6 min
pIC50: −log10 of the molar value.
For each record, write down the corresponding pIC50.

**Query** Which pIC50 value is on record for O=C(c1cc2c(F)cc(F)cc2[nH]1)N1CCc2nc(NCC3(O)CCC3)sc2C1 ?
**Result** > 5.30

**Query** Which pIC50 value is on record for Nc1nc2c(s1)CN(C(=O)c1cc3cc(F)c(Cl)cc3[nH]1)CC2 ?
**Result** > 5.30

**Query** Which pIC50 value is on record for CN1CCOC(CNc2nc3c(s2)CN(C(=O)c2cc4ccccc4[nH]2)CC3)C1 (stereo not shown) ?
**Result** 5.00 to 5.30

**Query** Which pIC50 value is on record for CCc1cccc2[nH]c(C(=O)N3CCc4nc(N[C@H]5CC[C@@H](O)CC5)sc4C3)cc12 ?
**Result** > 5.30

**Query** Which pIC50 value is on record for O=C(c1cc2ccccc2[nH]1)N1CCc2nc(NS(=O)(=O)C3CC3)sc2C1 ?
**Result** > 4.00

**Query** Which pIC50 value is on record for CC(C)OC(=O)[C@H](C)NP(=O)(OCCNc1nc2c(s1)CN(C(=O)c1cc3c(F)cc(F)cc3[nH]1)CC2)Oc1ccccc1 (stereo partly shown) ?
**Result** > 4.00

**Query** Which pIC50 value is on record for O=C(c1cc2ccccc2[nH]1)N1CCc2nc(NCCO)sc2C1 ?
**Result** > 5.30

**Query** Which pIC50 value is on record for CCc1cccc2[nH]c(C(=O)N3CCc4nc(NC5(CO)CCC5)sc4C3)cc12 ?
**Result** > 5.30

**Query** Which pIC50 value is on record for Cc1c(Cl)ccc2cc(C(=O)N3CCc4nc(N)sc4C3)[nH]c12 ?
**Result** > 5.30

**Query** Which pIC50 value is on record for C#Cc1cccc2[nH]c(C(=O)N3CCc4nc(N)sc4C3)cc12 ?
**Result** > 4.00

**Query** Which pIC50 value is on record for O=C(Nc1nc2c(s1)CN(C(=O)c1cc3c(F)cc(F)cc3[nH]1)CC2)C1CCOCC1 ?
**Result** > 5.30

**Query** Which pIC50 value is on record for CC(Nc1nc2c(s1)CN(C(=O)c1cc3ccccc3[nH]1)CC2)C(F)(F)F (stereo not shown) ?
**Result** > 4.00

**Query** Which pIC50 value is on record for Cc1nc2c(s1)CN(C(=O)c1cc3c(Cl)c(Cl)ccc3[nH]1)CC2 ?
**Result** > 4.00

**Query** Which pIC50 value is on record for Cc1cccc2[nH]c(C(=O)N3CCc4nc(NCC5(O)CCC5)sc4C3)cc12 ?
**Result** > 5.30

**Query** Which pIC50 value is on record for CC(C)(CC(=O)Nc1nc2c(s1)CN(C(=O)c1cc3ccccc3[nH]1)CC2)C1CC1 ?
**Result** > 4.00

**Query** Which pIC50 value is on record for O=C(c1cc2ccccc2[nH]1)N1CCc2nc(NCC3(CO)CC3)sc2C1 ?
**Result** > 5.30

**Query** Which pIC50 value is on record for COC1CCC(Nc2nc3c(s2)CN(C(=O)c2cc4ccccc4[nH]2)CC3)CC1 (stereo not shown) ?
**Result** 5.00 to 5.30

**Query** Which pIC50 value is on record for O=C(c1cc2ccccc2[nH]1)N1CCc2nc(NCC3(CO)CCC3)sc2C1 ?
**Result** > 5.30

**Query** Which pIC50 value is on record for Nc1nc2c(s1)CN(C(=O)c1cc3c(F)cc(Cl)cc3[nH]1)CC2 ?
**Result** > 5.30

**Query** Which pIC50 value is on record for O=C(Nc1nc2c(s1)CN(C(=O)c1cc3c(Cl)cc(F)cc3[nH]1)CC2)C1CCOCC1 ?
**Result** 5.00 to 5.30

**Query** Which pIC50 value is on record for N#Cc1ccc(F)c2[nH]c(C(=O)N3CCc4nc(N)sc4C3)cc12 ?
**Result** > 4.00

**Query** Which pIC50 value is on record for O=C(c1cc2ccc(Cl)cc2[nH]1)N1CCc2nc(NCC3CCOC3)sc2C1 (stereo not shown) ?
**Result** > 5.30

**Query** Which pIC50 value is on record for Nc1nc2c(s1)CN(C(=O)c1cc3c(C(F)F)cc(F)cc3[nH]1)CC2 ?
**Result** > 5.30

**Query** Which pIC50 value is on record for O=C(CC(F)(F)F)Nc1nc2c(s1)CN(C(=O)c1cc3ccccc3[nH]1)CC2 ?
**Result** 5.00 to 5.30

**Query** Which pIC50 value is on record for CC(O)CNc1nc2c(s1)CN(C(=O)c1cc3ccccc3[nH]1)CC2 (stereo not shown) [Example 178] ?
**Result** > 5.30

**Query** Which pIC50 value is on record for Nc1nc2c(s1)CN(C(=O)c1cc3c(Br)c(F)ccc3[nH]1)CC2 ?
**Result** > 4.00

**Query** Which pIC50 value is on record for N#Cc1cccc2[nH]c(C(=O)N3CCc4nc(N)sc4C3)cc12 ?
**Result** > 5.30

**Query** Which pIC50 value is on record for CC(C)(CO)CNc1nc2c(s1)CN(C(=O)c1cc3ccccc3[nH]1)CC2 ?
**Result** > 5.30

**Query** Which pIC50 value is on record for CN(CC1CCOC1)c1nc2c(s1)CN(C(=O)c1cc3ccccc3[nH]1)CC2 (stereo not shown) ?
**Result** > 4.00

**Query** Which pIC50 value is on record for CC(C)(O)CNc1nc2c(s1)CN(C(=O)c1cc3ccccc3[nH]1)CC2 ?
**Result** > 5.30

**Query** Which pIC50 value is on record for O=C(c1cc2ccccc2[nH]1)N1CCc2nc(NC3(CO)CC3)sc2C1 ?
**Result** > 5.30

**Query** Which pIC50 value is on record for N#Cc1cc(F)cc2[nH]c(C(=O)N3CCc4nc(NCC5CCOC5)sc4C3)cc12 (stereo not shown) ?
**Result** 5.00 to 5.30

**Query** Which pIC50 value is on record for Nc1nc2c(s1)CN(C(=O)c1cc3cccc(Cl)c3[nH]1)CC2 ?
**Result** > 5.30

**Query** Which pIC50 value is on record for O=C(c1cc2ccccc2[nH]1)N1CCc2nc(NCC(CO)C3CC3)sc2C1 (stereo not shown) ?
**Result** > 5.30

----------
MEASURED_ON: HBV core protein (UniProt P03146)
Sequence (P03146 whole entry, looked up): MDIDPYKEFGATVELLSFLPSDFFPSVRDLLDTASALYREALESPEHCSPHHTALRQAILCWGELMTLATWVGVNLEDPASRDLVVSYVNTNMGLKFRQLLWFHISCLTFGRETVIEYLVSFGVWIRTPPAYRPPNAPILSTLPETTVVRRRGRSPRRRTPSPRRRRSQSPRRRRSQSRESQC
Type: biochemical
MEASUREMENT_SETUP: read-out: Assembly Activity (IC50); BODIPY-FL labelled core protein, assembly started with NaCl, read after 6 min
OBSERVABLE: IC50

**Query** Entry CC(C)(C)CC(=O)Nc1nc2c(s1)CN(C(=O)c1cc3ccccc3[nH]1)CC2 , system HBV core protein (UniProt P03146): what IC50 was measured?
**Result** 5 to 10 µM

**Query** Entry Nc1nc2c(s1)CN(C(=O)c1cc3c(F)cc(Br)cc3[nH]1)CC2 , system HBV core protein (UniProt P03146): what IC50 was measured?
**Result** < 5 µM

**Query** Entry Cc1cccc2[nH]c(C(=O)N3CCc4nc(NCC5(CO)CC5)sc4C3)cc12 , system HBV core protein (UniProt P03146): what IC50 was measured?
**Result** < 5 µM

**Query** Entry N#Cc1cc(F)cc2[nH]c(C(=O)N3CCc4nc(N)sc4C3)cc12 , system HBV core protein (UniProt P03146): what IC50 was measured?
**Result** < 5 µM

**Query** Entry Nc1nc2c(s1)CN(C(=O)c1[nH]c3ccccc3c1F)CC2 , system HBV core protein (UniProt P03146): what IC50 was measured?
**Result** < 100 µM

**Query** Entry O=C(c1cc2ccccc2[nH]1)N1CCc2nc(NCC(CO)CC3CC3)sc2C1 (stereo not drawn) , system HBV core protein (UniProt P03146): what IC50 was measured?
**Result** 5 to 10 µM

**Query** Entry O=C(c1cc2ccccc2[nH]1)N1CCc2nc(NCC(CO)CC3CCOCC3)sc2C1 (stereo not drawn) , system HBV core protein (UniProt P03146): what IC50 was measured?
**Result** < 5 µM

**Query** Entry CC(C)(C)NC(=O)Nc1nc2c(s1)CN(C(=O)c1cc3c(Cl)cc(F)cc3[nH]1)CC2 , system HBV core protein (UniProt P03146): what IC50 was measured?
**Result** < 100 µM

**Query** Entry CC(C)Nc1nc2c(s1)CN(C(=O)c1cc3ccccc3[nH]1)CC2 , system HBV core protein (UniProt P03146): what IC50 was measured?
**Result** < 5 µM

**Query** Entry Nc1nc2c(s1)CCN(C(=O)c1cc3ccccc3[nH]1)CC2 , system HBV core protein (UniProt P03146): what IC50 was measured?
**Result** < 100 µM

**Query** Entry O=C(c1cc2c(Cl)cc(F)cc2[nH]1)N1CCc2nc(NCC3(O)CCC3)sc2C1 , system HBV core protein (UniProt P03146): what IC50 was measured?
**Result** < 5 µM

**Query** Entry CC(Nc1nc2c(s1)CN(C(=O)c1cc3ccccc3[nH]1)CC2)C1CCOC1 (stereo not drawn) , system HBV core protein (UniProt P03146): what IC50 was measured?
**Result** < 5 µM

**Query** Entry O=C(c1cc2ccccc2[nH]1)N1CCc2nc(NCC3(c4ccccn4)CCC3)sc2C1 , system HBV core protein (UniProt P03146): what IC50 was measured?
**Result** < 5 µM

**Query** Entry NCc1nc2c(s1)CN(C(=O)c1cc3ccccc3[nH]1)CC2 , system HBV core protein (UniProt P03146): what IC50 was measured?
**Result** < 100 µM

**Query** Entry O=C(c1cc2c(Cl)cc(F)cc2[nH]1)N1CCc2nc(NCC3CCOC3)sc2C1 (stereo not drawn) , system HBV core protein (UniProt P03146): what IC50 was measured?
**Result** < 5 µM

**Query** Entry O=C(Nc1nc2c(s1)CN(C(=O)c1cc3ccc(Cl)cc3[nH]1)CC2)C1CCOCC1 , system HBV core protein (UniProt P03146): what IC50 was measured?
**Result** < 5 µM

**Query** Entry COC1(CNc2nc3c(s2)CN(C(=O)c2cc4ccccc4[nH]2)CC3)CCOC1 (stereo not drawn) , system HBV core protein (UniProt P03146): what IC50 was measured?
**Result** < 5 µM

**Query** Entry Nc1nc2c(s1)CN(C(=O)c1cc3c(Cl)ccc(Cl)c3[nH]1)CC2 , system HBV core protein (UniProt P03146): what IC50 was measured?
**Result** < 100 µM
